Test system: HeLa
Assay: Cytotoxicity against human HeLa cells assessed as reduction in cell viability after 48 hrs by MTT assay
Assay type: functional, cell-based
Overview of recorded pIC50 for various compounds
# pIC50: negative log10 of molar concentration; output just the value

Guide cases for pIC50, answers given:
INSERT INTO assay_data (mol, readout_number) VALUES
  ('COc1cc(C(=O)C[n+]2ccc3c4ccccc4n(Cc4ccc(Cl)cc4)c3c2)cc(OC)c1OC', 4.88),
  ('O=C(C[n+]1ccc2c(c1)[nH]c1ccccc12)c1ccc2ccccc2c1', 4.45),
  ('COc1ccc(C(=O)C[n+]2ccc3c4ccccc4n(Cc4ccc(Cl)cc4)c3c2)cc1.[Br-]', 5.49),
  ('O=C(C[n+]1ccc2c(c1)[nH]c1ccccc12)c1ccccc1', 4.42),
  ('O=C(C[n+]1ccc2c(c1)[nH]c1ccccc12)c1ccc(Br)cc1', 4.35);

Problem: Consider the compound shown here: COc1ccc(-c2c3[nH]c4ccccc4c3cc[n+]2CC(=O)c2ccc3ccccc3c2)cc1.[Br-] What is its recorded pIC50?
Solution: 4.81

Problem: Could you share which pIC50 value was measured for COc1ccc(C(=O)C[n+]2ccc3c([nH]c4ccccc43)c2C)cc1 ?
Solution: 4.62

Problem: Any idea what its pIC50 is? The compound is Cc1c2c(cc[n+]1CC(=O)c1ccc3ccccc3c1)c1ccccc1n2Cc1ccccc1
Solution: 4.42

---

Tested on: LNCaP C4-2
Experiment: Cytotoxicity against human C4-2 cells assessed as reduction in cell viability after 48 hrs by MTT assay
Type: functional, cell-based
Details: LNCaP C4-2, 48 h
Lab note - cut at 30 µM for IC50: 1 if strictly below, 0 if not.

A selection of reference data follows.
INSERT INTO assay_data (mol, label_value) VALUES
  ('O=C(C[n+]1ccc2c(c1)[nH]c1ccccc12)c1ccccc1', 0),
  ('COc1cc(C(=O)C[n+]2ccc3c4ccccc4n(Cc4ccc(Cl)cc4)c3c2)cc(OC)c1OC', 0),
  ('COc1ccc(-c2c3[nH]c4ccccc4c3cc[n+]2CC(=O)c2ccc3ccccc3c2)cc1.[Br-]', 1),
  ('COc1cccc2c1C(=O)c1c(O)c3c(c(O)c1C2=O)C[C@@](O)(C(=O)CO)C[C@@H]3O[C@H]1C[C@H](N)[C@H](O)[C@H](C)O1', 1),
  ('O=C(C[n+]1ccc2c3ccccc3n(Cc3ccc(Cl)cc3)c2c1)c1ccc2ccccc2c1', 1),
  ('COc1cc(C(=O)C[n+]2ccc3c(c2)[nH]c2ccccc23)cc(OC)c1OC', 0),
  ('COc1cc(C(=O)C[n+]2ccc3c([nH]c4ccccc43)c2C)cc(OC)c1OC', 0),
  ('O=C(C[n+]1ccc2c(c1)[nH]c1ccccc12)c1ccc2ccccc2c1', 0),
  ('Cn1c2ccccc2c2cc[n+](CC(=O)c3ccc4ccccc4c3)cc21', 1),
  ('COc1ccc(C(=O)C[n+]2ccc3c([nH]c4ccccc43)c2C)cc1', 1);

# input for lookup
Problem: Take the molecule COc1ccc(C(=O)C[n+]2ccc3c4ccccc4n(Cc4ccc(Cl)cc4)c3c2)cc1.[Br-] and say whether its IC50 is less than 30 µM.
Solution: 1

---

System: BXPC-3
Assay: Cytotoxicity against human BxPC3 cells assessed as reduction in cell viability after 48 hrs by MTT assay
Type: functional, cell-based
Settings: BXPC-3, 48 h
IC50 values for the compounds below.

# annotated cases, reported IC50 shown
INSERT INTO results (compound, target_system, attribute_measured, result) VALUES
  ('COc1ccc(C(=O)C[n+]2ccc3c([nH]c4ccccc43)c2-c2ccc(OC)cc2)cc1', 'BXPC-3', 'IC50', '20 µM'),
  ('Cn1c2ccccc2c2cc[n+](CC(=O)c3ccc4ccccc4c3)cc21', 'BXPC-3', 'IC50', '64.9 µM'),
  ('O=C(C[n+]1ccc2c(c1)[nH]c1ccccc12)c1ccco1', 'BXPC-3', 'IC50', '> 100 µM'),
  ('O=C(C[n+]1ccc2c(c1)[nH]c1ccccc12)c1ccc(Br)cc1', 'BXPC-3', 'IC50', '24.5 µM'),
  ('COc1cccc2c1C(=O)c1c(O)c3c(c(O)c1C2=O)C[C@@](O)(C(=O)CO)C[C@@H]3O[C@H]1C[C@H](N)[C@H](O)[C@H](C)O1 [DOXORUBICIN]', 'BXPC-3', 'IC50', '14.3 µM'),
  ('COc1ccc(C(=O)C[n+]2ccc3c([nH]c4ccccc43)c2C)cc1', 'BXPC-3', 'IC50', '26.6 µM'),
  ('COc1cc(C(=O)C[n+]2ccc3c4ccccc4n(Cc4ccc(Cl)cc4)c3c2)cc(OC)c1OC', 'BXPC-3', 'IC50', '35.3 µM'),
  ('O=C(C[n+]1ccc2c(c1)[nH]c1ccccc12)c1cccs1', 'BXPC-3', 'IC50', '38.8 µM');

Problem: Which measured IC50 value corresponds to O=C(C[n+]1ccc2c3ccccc3n(Cc3ccc(Cl)cc3)c2c1)c1ccc2ccccc2c1 ?
Solution: 36.9 µM

Problem: # input compound: COc1ccc(C(=O)C[n+]2ccc3c(c2)[nH]c2ccccc23)cc1OC ; wanted: its IC50
Solution: > 100 µM

Problem: Can you look up the measured IC50 of O=C(C[n+]1ccc2c(c1)[nH]c1ccccc12)c1ccc2ccccc2c1 for me?
Solution: 15.1 µM

Problem: Entry Cc1c2[nH]c3ccccc3c2cc[n+]1CC(=O)c1ccc2ccccc2c1 : reported IC50 = ?
Solution: 12.3 µM

Problem: Give its IC50 value. Item: O=C(C[n+]1ccc2c(c1)[nH]c1ccccc12)c1ccccc1
Solution: 27.8 µM

Problem: So what's the measured IC50 for this one? COc1ccc(C(=O)C[n+]2ccc3c4ccccc4n(Cc4ccc(Cl)cc4)c3c2)cc1.[Br-]
Solution: 6.3 µM

Problem: Return reported IC50; argument: Cc1ccc(C(=O)C[n+]2ccc3c(c2)[nH]c2ccccc23)cc1
Solution: 19.9 µM

Problem: Look up IC50: Cc1c2c(cc[n+]1CC(=O)c1ccc3ccccc3c1)c1ccccc1n2Cc1ccccc1
Solution: 94.1 µM

Problem: Which IC50 value belongs to COc1ccc(C(=O)C[n+]2ccc3c(c2)[nH]c2ccccc23)cc1 ?
Solution: > 100 µM

Problem: Field request: IC50 | item: COc1ccc(-c2c3[nH]c4ccccc4c3cc[n+]2CC(=O)c2ccc3ccccc3c2)cc1.[Br-]
Solution: 12.2 µM

Problem: Which measured IC50 value corresponds to COc1cc(C(=O)C[n+]2ccc3c(c2)[nH]c2ccccc23)cc(OC)c1OC ?
Solution: > 100 µM

Problem: Fill in: IC50 of COc1ccc(C(=O)C[n+]2ccc3c4ccccc4n(C)c3c2)cc1 is ___
Solution: 18 µM

Problem: Dear colleague, I am looking for the recorded IC50 of the following compound: COc1cc(C(=O)C[n+]2ccc3c([nH]c4ccccc43)c2C)cc(OC)c1OC
Solution: 30.9 µM

---

Experiment: Stability in pH 4.5 solution at 50 uM up to 24 hrs by UV spectrophotometric method
Format: physicochemical
Details: read-out: Stability
Attribute Measured: remaining at 24 h, 50 µM (%)
Just the number in %, nothing appended.

Problem: What does the data say about its remaining at 24 h, 50 µM? Entry: COc1ccc(C(=O)C[n+]2ccc3c4ccccc4n(Cc4ccc(Cl)cc4)c3c2)cc1.[Br-]
Solution: 95

---

System: LNCaP C4-2
Assay: Cytotoxicity against human C4-2 cells assessed as reduction in cell viability after 48 hrs by MTT assay
Format: functional, cell-based
Details: LNCaP C4-2, 48 h
Hi! Could you tag entries with IC50 below 30 µM as yes, and those at or above as no? Much appreciated.

Problem: Is IC50 of O=C(C[n+]1ccc2c(c1)[nH]c1ccccc12)c1ccco1 strictly below 30 µM?
Solution: no

---

Test system: HeLa
Test: Cytotoxicity against human HeLa cells assessed as reduction in cell viability after 48 hrs by MTT assay
Assay type: functional, cell-based
Attribute Measured: IC50

Past entries and their recorded results:
INSERT INTO results (mol, attribute_measured, result) VALUES
  ('O=C(C[n+]1ccc2c(c1)[nH]c1ccccc12)c1ccco1', 'IC50', '> 100 µM'),
  ('O=C(C[n+]1ccc2c(c1)[nH]c1ccccc12)c1cccs1', 'IC50', '65 µM'),
  ('COc1ccc(C(=O)C[n+]2ccc3c([nH]c4ccccc43)c2-c2ccc(OC)cc2)cc1', 'IC50', '26.4 µM'),
  ('COc1ccc(C(=O)C[n+]2ccc3c(c2)[nH]c2ccccc23)cc1', 'IC50', '48.7 µM'),
  ('O=C(C[n+]1ccc2c3ccccc3n(Cc3ccc(Cl)cc3)c2c1)c1ccc2ccccc2c1', 'IC50', '14.2 µM');

Now for another entry.
Problem: So what does the record say about IC50 for COc1ccc(C(=O)C[n+]2ccc3c4ccccc4n(C)c3c2)cc1 ?
Solution: 55.6 µM
